Biological target: 5-HT1A (Sus scrofa, UniProt A0A4X1UTF5)
Construct: membrane preparations from porcine cortex; from tissue; host or cells: porcine cortex
Sequence (A0A4X1UTF5 1-422): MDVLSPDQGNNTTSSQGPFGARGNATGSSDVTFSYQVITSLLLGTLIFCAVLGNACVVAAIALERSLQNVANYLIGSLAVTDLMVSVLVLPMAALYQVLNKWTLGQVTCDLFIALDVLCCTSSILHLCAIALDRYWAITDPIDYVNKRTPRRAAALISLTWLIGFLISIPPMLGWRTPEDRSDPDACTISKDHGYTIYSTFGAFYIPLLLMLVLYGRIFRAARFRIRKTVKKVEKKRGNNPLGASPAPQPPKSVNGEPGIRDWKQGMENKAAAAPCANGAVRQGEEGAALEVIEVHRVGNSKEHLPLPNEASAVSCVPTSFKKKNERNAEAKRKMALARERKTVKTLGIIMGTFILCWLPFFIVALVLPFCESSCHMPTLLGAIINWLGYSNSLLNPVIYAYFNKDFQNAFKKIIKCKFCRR
Assay: radioligand binding assay, serotonin 5-HT1A receptor, [3H]WAY 100635
Details: porcine cortex membranes, mean of two to five experiments in triplicate, read-out: Ki 5-HT1a
From the text: The investigation of receptor binding to the serotonin and adrenergic receptors was done according to a published procedure (Heindl, C. et al., Tetrahedron: Asymmetry (2003), 14, 3141-3152). […] The results of the binding experiments are summarized in Table 1 as mean values of two to five individual experiments each done in triplicate and expressed as Ki values in nM.
pKi: −log10 of the molar value.
Provide the recorded pKi for the entries that follow.

Inquiry: Provide measured pKi value, entry: Cc1ccc(CNCC2(F)CCN(C(=O)c3cc(Br)c(Br)s3)CC2)nc1 [Example E8]
Reply text: > 7.30

Inquiry: Provide measured pKi value, entry: Cc1ccc(CNCC2(F)CCN(C(=O)c3cc4ccccn4n3)CC2)nc1 [Example E42]
Reply text: 6.30 to 7.30

Inquiry: Provide measured pKi value, entry: Cc1ccc(CNCC2(F)CCN(C(=O)c3csc4ccccc34)CC2)nc1 [Example E25]
Reply text: > 7.30

Inquiry: Provide measured pKi value, entry: Cc1ccc(CNCC2(F)CCN(C(=O)c3sc4sccc4c3Cl)CC2)nc1 [Example E28]
Reply text: > 7.30

Inquiry: Provide measured pKi value, entry: Cc1ccc(CNCC2(F)CCN(C(=O)c3ccco3)CC2)nc1 [Example E31]
Reply text: 6.30 to 7.30

Inquiry: Provide measured pKi value, entry: Cc1ccc(CNCC2(F)CCN(C(=O)c3ccc(-c4ccccn4)s3)CC2)nc1 [Example E14]
Reply text: 6.30 to 7.30

Inquiry: Provide measured pKi value, entry: Cc1ccc(CNCC2(F)CCN(C(=O)c3cc4ccccc4o3)CC2)nc1 [Example E35]
Reply text: 6.30 to 7.30

Inquiry: Provide measured pKi value, entry: Cc1ccc(CNCC2(F)CCN(C(=O)c3ccc(-c4csc(C)n4)s3)CC2)nc1 [Example E16]
Reply text: 6.30 to 7.30

Inquiry: Provide measured pKi value, entry: Cc1ccc(CNCC2(F)CCN(C(=O)c3cc4cc(Br)ccc4s3)CC2)nc1 [Example E24]
Reply text: 6.30 to 7.30

Inquiry: Provide measured pKi value, entry: Cc1ccc(CNCC2(F)CCN(C(=O)c3ccc(-c4cccs4)s3)CC2)nc1 [Example E15]
Reply text: 6.30 to 7.30

Inquiry: Provide measured pKi value, entry: Cc1ccc(CNCC2(F)CCN(C(=O)c3cc4sccc4s3)CC2)nc1 [Example E26]
Reply text: > 7.30

Inquiry: Provide measured pKi value, entry: Cc1ccc(CNCC2(F)CCN(C(=O)c3ccc(F)s3)CC2)nc1 [Example E2]
Reply text: > 7.30

Inquiry: Provide measured pKi value, entry: Cc1ccc(CNCC2(F)CCN(C(=O)c3cnn4ccccc34)CC2)nc1 [Example E43]
Reply text: 6.30 to 7.30
